Entry source: patent US7056679

Record form. Attribute: DGI-2/LDH. Fill in for each entry.
Biological target: T1, DGI-2 polypeptide (UniProt Q15004 1-111, limits assumed)
T1 construct: Soluble recombinant protein coated at 500 ng/well; vector tag of pIVEX2.3-MCS not described for this construct; also called KIAA0101
T1 sequence (looked up): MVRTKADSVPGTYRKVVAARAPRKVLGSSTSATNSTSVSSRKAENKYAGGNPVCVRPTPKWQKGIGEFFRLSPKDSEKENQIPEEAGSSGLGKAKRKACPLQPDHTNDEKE
Test: phage ELISA
Report as a plain number; the unit ratio is understood.

Looking up VWRDWVNGTVGLRNREKPGVAAAGAPVPYPDPLEPRP [DGI-2-20R-3-A5] , I see its DGI-2/LDH listed as 9.8

Looking up VQSGRDLGGLLRGGTGTEASPAAAGAPVPYPDPLEPRP [DGI-2-20F-PP-D3] , I see its DGI-2/LDH listed as 2.4

Looking up GASRVVDVGWRFWGKLWQRSAAAGAPVPYPDPLEPRP [DGI-2-20F-PP-G5] , I see its DGI-2/LDH listed as 2
